Value source: patent US8338565B2

The entries below come with measured IC50 values attached.
ASSAYED_TARGET: TNFα / TNFα receptor (TNFα R1/Fc) (Homo sapiens, UniProt P01375)
Construct: purchased R&D Systems
Sequence (P01375 77-233 limits assumed, species assumed): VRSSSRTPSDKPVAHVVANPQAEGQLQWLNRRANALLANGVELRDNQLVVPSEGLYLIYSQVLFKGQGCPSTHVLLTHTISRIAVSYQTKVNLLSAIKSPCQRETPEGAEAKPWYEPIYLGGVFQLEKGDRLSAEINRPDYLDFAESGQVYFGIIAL
ASSAY_NAME: Inhibition of binding of TNFα to the TNFα receptor (plate ELISA competition)
EXPERIMENTAL_PARAMETERS: Table 2; read-out: Activity (IC50, inhibition of TNFα binding to TNFα R1/Fc)
Numbered stars: 1 amine (or outer) side, 2 acyl side, 3 side chain; on linkers, the order of the positions; unused ones are H or OH. Bridge positions count the residues as written; N and C are the ends. Square brackets hold non-standard residues; d marks the D form. Peptide text beside a SMILES is read from it. * marks the point of attachment. Bip = N[C@@H](Cc1ccc(-c2ccccc2)cc1)C(=O)O; Phe(4-NH2) = Nc1ccc(C[C@H](N)C(=O)O)cc1; d2Thi = N[C@H](Cc1cccs1)C(=O)O; Suc = O=C(CCC(=O)[*:2])[*:1]; OtBu = CC(C)(C)O*
READOUT_NAME: IC50

{"columns": ["MOLECULE", "READOUT_NAME", "ENDPOINT_VALUE"],
 "data": [
  ["CC(C)(C)OC(=O)C[C@H]1NC(=O)[C@H](Cc2ccc(-c3ccccc3)cc2)NC(=O)[C@@H](Cc2cccs2)NC(=O)CCC(=O)Nc2ccc(cc2)C[C@@H](C(=O)O)NC1=O [Compound 63] ([d2Thi][Bip][dD](OtBu)[Phe(4-NH2)]-OH; linker N-4 via Suc)", "IC50", "> 100 µM"],
  ["O=C1COc2ccc(cc2)C[C@@H](C(=O)O)NC(=O)[C@H](CCc2ccccc2)NC(=O)[C@@H](Cc2ccc(-c3ccccc3)cc2)NC(=O)[C@H](Cc2ccc([N+](=O)[O-])cc2)N1", "IC50", "< 10 µM"]
]}

====

ASSAYED_TARGET: TNFα / TNFα receptor (TNFα R1/Fc) (Homo sapiens, UniProt P01375)
Construct: purchased R&D Systems
ASSAY_NAME: Inhibition of binding of TNFα to the TNFα receptor (plate ELISA competition)
EXPERIMENTAL_PARAMETERS: Table 2; read-out: Activity (IC50, inhibition of TNFα binding to TNFα R1/Fc)
pIC50: −log10 of the molar value. Numbered stars: 1 amine (or outer) side, 2 acyl side, 3 side chain; on linkers, the order of the positions; unused ones are H or OH. Bridge positions count the residues as written; N and C are the ends. Square brackets hold non-standard residues; d marks the D form. Peptide text beside a SMILES is read from it. Phe(4-CF3) = N[C@@H](Cc1ccc(C(F)(F)F)cc1)C(=O)O; Bip = N[C@@H](Cc1ccc(-c2ccccc2)cc1)C(=O)O; Phe(4-NH2) = Nc1ccc(C[C@H](N)C(=O)O)cc1; d(hPhe) = N[C@H](CCc1ccccc1)C(=O)O; d2Thi = N[C@H](Cc1cccs1)C(=O)O; Suc = O=C(CCC(=O)[*:2])[*:1]
The entries below come with measured pIC50 values attached.
READOUT_NAME: pIC50

{"columns": ["MOLECULE", "ASSAYED_TARGET", "READOUT_NAME", "ENDPOINT_VALUE"],
 "data": [
  ["O=C1COc2ccc(cc2)C[C@@H](C(=O)O)NC(=O)[C@H](CCc2ccccc2)NC(=O)[C@@H](Cc2ccc(-c3ccccc3)cc2)NC(=O)[C@H](Cc2ccc(F)cc2)N1", "TNFα / TNFα receptor (TNFα R1/Fc) (Homo sapiens, UniProt P01375)", "pIC50", "> 5.00"],
  ["CC(C)(C)Oc1ccc(C[C@@H]2NC(=O)[C@@H](Cc3ccc(-c4ccccc4)cc3)NC(=O)[C@H](Cc3cccs3)NC(=O)COc3ccc(cc3)C[C@@H](C(=O)O)NC2=O)cc1", "TNFα / TNFα receptor (TNFα R1/Fc) (Homo sapiens, UniProt P01375)", "pIC50", "> 5.00"],
  ["O=C1CCC(=O)N[C@H](Cc2cccs2)C(=O)N[C@@H](Cc2ccc(C(F)(F)F)cc2)C(=O)N[C@H](Cc2ccccc2)C(=O)N[C@H](C(=O)O)Cc2ccc(cc2)N1 [Compound 89] ([d2Thi][Phe(4-CF3)][dF][Phe(4-NH2)]-OH; linker N-4 via Suc)", "TNFα / TNFα receptor (TNFα R1/Fc) (Homo sapiens, UniProt P01375)", "pIC50", "4.52 to 5.00"],
  ["O=C1CCC(=O)N[C@H](Cc2cccs2)C(=O)N[C@@H](Cc2ccc(-c3ccccc3)cc2)C(=O)N[C@H](CCc2ccccc2)C(=O)N[C@H](C(=O)N[C@@H](Cc2ccccc2)C(=O)O)Cc2ccc(cc2)N1 [Compound 445] ([d2Thi][Bip][d(hPhe)][Phe(4-NH2)]F-OH; linker N-4 via Suc)", "TNFα / TNFα receptor (TNFα R1/Fc) (Homo sapiens, UniProt P01375)", "pIC50", "4.52 to 5.00"],
  ["NCCCC[C@H](NC(=O)[C@@H]1Cc2ccc(cc2)NC(=O)[C@H](O)[C@@H](O)C(=O)N[C@H](Cc2cccs2)C(=O)N[C@@H](Cc2ccc(-c3ccccc3)cc2)C(=O)N[C@H](Cc2ccccc2)C(=O)N1)C(=O)O [Compound 360]", "TNFα / TNFα receptor (TNFα R1/Fc) (Homo sapiens, UniProt P01375)", "pIC50", "< 4.00"],
  ["O=C1CCC(=O)N[C@H](CCc2ccccc2)C(=O)N[C@@H](Cc2ccc(C(F)(F)F)cc2)C(=O)N[C@H](Cc2ccccc2)C(=O)N[C@H](C(=O)N[C@@H](Cc2ccccc2)C(=O)O)Cc2ccc(cc2)N1 [Compound 11] ([d(hPhe)][Phe(4-CF3)][dF][Phe(4-NH2)]F-OH; linker N-4 via Suc)", "TNFα / TNFα receptor (TNFα R1/Fc) (Homo sapiens, UniProt P01375)", "pIC50", "> 5.00"],
  ["C[C@H](NC(=O)[C@@H]1Cc2ccc(cc2)OCC(=O)N[C@@H](Cc2ccc(-c3ccccc3)cc2)C(=O)N[C@H](Cc2ccc(-c3ccccc3)cc2)C(=O)N[C@@H](CCc2ccccc2)C(=O)N1)C(=O)O", "TNFα / TNFα receptor (TNFα R1/Fc) (Homo sapiens, UniProt P01375)", "pIC50", "> 5.00"],
  ["O=C1COc2ccc(cc2)C[C@@H](C(=O)N[C@@H](Cc2ccc(O)cc2)C(=O)O)NC(=O)[C@H](Cc2ccccc2)NC(=O)[C@H](Cc2ccc(-c3ccccc3)cc2)NC(=O)[C@H](Cc2cccs2)N1", "TNFα / TNFα receptor (TNFα R1/Fc) (Homo sapiens, UniProt P01375)", "pIC50", "> 5.00"]
]}
